subject.of.test: ΔF508-CFTR (Homo sapiens, UniProt P13569, DEL508-508)
Construct: host or cells: CFBE41o-, doxycycline-inducible
Sequence (P13569 with tags, fused parts or gaps DEL508-508): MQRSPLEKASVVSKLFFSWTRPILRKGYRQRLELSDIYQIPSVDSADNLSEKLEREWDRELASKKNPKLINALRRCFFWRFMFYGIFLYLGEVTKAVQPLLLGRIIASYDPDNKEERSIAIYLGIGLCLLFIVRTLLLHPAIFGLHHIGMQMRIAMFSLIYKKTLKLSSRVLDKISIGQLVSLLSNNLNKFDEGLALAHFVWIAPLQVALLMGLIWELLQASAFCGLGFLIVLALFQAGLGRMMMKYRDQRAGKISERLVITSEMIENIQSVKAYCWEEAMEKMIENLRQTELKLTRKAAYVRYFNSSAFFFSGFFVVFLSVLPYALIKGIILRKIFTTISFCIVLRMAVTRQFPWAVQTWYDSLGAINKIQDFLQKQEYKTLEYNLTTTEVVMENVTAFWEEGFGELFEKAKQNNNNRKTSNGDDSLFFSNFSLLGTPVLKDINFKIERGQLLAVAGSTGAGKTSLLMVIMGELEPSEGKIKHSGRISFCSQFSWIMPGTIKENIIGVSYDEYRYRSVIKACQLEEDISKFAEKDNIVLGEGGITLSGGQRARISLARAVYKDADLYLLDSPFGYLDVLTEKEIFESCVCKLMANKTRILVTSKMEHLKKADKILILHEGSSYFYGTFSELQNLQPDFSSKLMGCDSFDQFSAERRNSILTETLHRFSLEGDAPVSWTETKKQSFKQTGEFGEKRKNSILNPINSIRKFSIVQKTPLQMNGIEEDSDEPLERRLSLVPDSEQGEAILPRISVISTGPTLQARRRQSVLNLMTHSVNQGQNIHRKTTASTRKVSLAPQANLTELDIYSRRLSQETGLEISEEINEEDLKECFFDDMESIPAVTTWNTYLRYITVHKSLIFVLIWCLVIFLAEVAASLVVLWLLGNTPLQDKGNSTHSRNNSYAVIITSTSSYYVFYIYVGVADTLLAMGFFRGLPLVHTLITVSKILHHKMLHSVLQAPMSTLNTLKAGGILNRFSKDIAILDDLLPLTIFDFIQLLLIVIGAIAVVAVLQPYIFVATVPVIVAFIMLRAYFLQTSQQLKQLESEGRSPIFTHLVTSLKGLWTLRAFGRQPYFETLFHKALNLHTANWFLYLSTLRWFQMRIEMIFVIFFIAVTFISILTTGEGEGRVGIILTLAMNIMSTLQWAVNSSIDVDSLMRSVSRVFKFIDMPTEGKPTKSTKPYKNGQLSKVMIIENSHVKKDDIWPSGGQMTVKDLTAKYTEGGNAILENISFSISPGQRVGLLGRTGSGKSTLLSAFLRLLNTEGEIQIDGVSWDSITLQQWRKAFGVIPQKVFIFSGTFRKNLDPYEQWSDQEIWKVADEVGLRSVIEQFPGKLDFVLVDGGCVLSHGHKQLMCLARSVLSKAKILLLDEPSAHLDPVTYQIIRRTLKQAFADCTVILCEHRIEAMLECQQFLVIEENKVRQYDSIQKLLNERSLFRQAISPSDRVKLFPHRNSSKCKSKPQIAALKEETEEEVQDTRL
protocol.details: CFTR cell surface levels using HRP-tagged ΔF508-CFTR expressing CFBE cells, intrinsic corrector capacity
Format: cell-based
Design: concentration or dose not given beside the values
measurement.parameters: HRP-tagged ΔF508-CFTR expressing CFBE41o- cells; compound alone (intrinsic corrector capacity); 20 hours at 33° C.
The entries below come with measured % Activation values attached.

smiles.str | subject.of.test | % Activation
COC(=O)N1CCC(COc2cc(C(=O)NS(C)(=O)=O)nc3c2c(C(C)C)nn3-c2ccc(F)cc2)CC1 | ΔF508-CFTR (Homo sapiens, UniProt P13569, DEL508-508) | 158.25%
COCC1CCN(c2cc(C(=O)NS(=O)(=O)CC(N)=O)nc3c2c(C2CCC2)nn3-c2ccccc2)CC1 | ΔF508-CFTR (Homo sapiens, UniProt P13569, DEL508-508) | 228%
CC(C)Oc1nn(C2CCCCC2)c2nc(C(=O)NS(=O)(=O)N(C)C)cc(-c3ccc(N4CCN(C(C)C)CC4)cc3)c12 | ΔF508-CFTR (Homo sapiens, UniProt P13569, DEL508-508) | 105%
C[C@@H]1CN(c2cc(C(=O)NS(=O)(=O)N(C)C)nc3c2c(C2CCC2)nn3C2CCCCC2)CCN1Cc1ccccc1 | ΔF508-CFTR (Homo sapiens, UniProt P13569, DEL508-508) | 75.38%
CS(=O)(=O)NC(=O)c1cc(-c2ccc(N3CCC(C#N)CC3)nc2)c2c(n1)n(-c1ccccc1)nc2[C@H]1C[C@H](F)C1 | ΔF508-CFTR (Homo sapiens, UniProt P13569, DEL508-508) | 205.57%
CN(C)S(=O)(=O)NC(=O)c1cc(C2CCN(CC3CCOCC3)CC2)c2c(C3CCC3)nn(-c3ccc(F)cc3)c2n1 | ΔF508-CFTR (Homo sapiens, UniProt P13569, DEL508-508) | 112%
CS(=O)(=O)NC(=O)c1cc(N2CCC(CCN3CCOCC3)CC2)c2c(C3CCC3)nn(-c3ccccc3)c2n1 | ΔF508-CFTR (Homo sapiens, UniProt P13569, DEL508-508) | 347.15%
COC(=O)N1CC(c2nn(-c3cc(F)cc(F)c3)c3nc(C(=O)NS(C)(=O)=O)cc(-c4ccc(NC(C)=O)cc4)c23)C1 | ΔF508-CFTR (Homo sapiens, UniProt P13569, DEL508-508) | 64.54%
CCOC(=O)N1CCN(c2cc(C(=O)NS(C)(=O)=O)nc3c2c(C2CCC2)nn3-c2ccc(F)cc2)CC1 | ΔF508-CFTR (Homo sapiens, UniProt P13569, DEL508-508) | 476.9%
COCC1CCN(c2cc(C(=O)NS(=O)(=O)N3CCC(F)CC3)nc3c2c(C2CCC2)nn3-c2ccccc2)CC1 | ΔF508-CFTR (Homo sapiens, UniProt P13569, DEL508-508) | 237.5%
CCCN(C)S(=O)(=O)NC(=O)c1cc(N2CCC(COC)CC2)c2c(C3CCC3)nn(-c3ccccc3)c2n1 | ΔF508-CFTR (Homo sapiens, UniProt P13569, DEL508-508) | 247.7%
CC(C)c1nn(C2CCCCC2)c2nc(C(=O)NS(C)(=O)=O)cc(-c3ccc(N(C)C4CCOCC4)nc3)c12 | ΔF508-CFTR (Homo sapiens, UniProt P13569, DEL508-508) | 172.4%
COCC1CCN(c2cc(C(=O)NS(=O)(=O)CC(=O)OC)nc3c2c(C2CCC2)nn3-c2ccccc2)CC1 | ΔF508-CFTR (Homo sapiens, UniProt P13569, DEL508-508) | 355.7%
CS(=O)(=O)NC(=O)c1cc(-c2ccc(N3CCC(C#N)CC3)nc2)c2c(OC3CCNCC3)nn(-c3ccccc3)c2n1 | ΔF508-CFTR (Homo sapiens, UniProt P13569, DEL508-508) | 8.829%

====

The entries below come with measured pEC50 values attached.
subject.of.test: ΔF508-CFTR (Homo sapiens, UniProt P13569, DEL508-508)
Construct: host or cells: CFBE41o-, doxycycline-inducible
protocol.details: CFTR cell surface levels using HRP-tagged ΔF508-CFTR expressing CFBE cells, in the presence of a co-corrector
Format: cell-based
measurement.parameters: HRP-tagged ΔF508-CFTR CFBE cells, in the presence of 3 μM co-corrector; read-out: EC50
pEC50: −log10 of the molar value.

smiles.str | subject.of.test | pEC50
CCS(=O)(=O)NC(=O)c1cc(-c2ccc(N3CC(N(C)C)C3)cc2)c2c(C)nn(-c3ccccc3)c2n1 | ΔF508-CFTR (Homo sapiens, UniProt P13569, DEL508-508) | 6.42
CCS(=O)(=O)NC(=O)c1cc(N2CCN(c3ccncc3)CC2)c2c(C3CCC3)nn(C3CCCCC3)c2n1 | ΔF508-CFTR (Homo sapiens, UniProt P13569, DEL508-508) | 6.94
COCCN(C)c1cc(C(=O)NS(C)(=O)=O)nc2c1c(C(C)C)nn2-c1ccc(F)cc1 | ΔF508-CFTR (Homo sapiens, UniProt P13569, DEL508-508) | 5.94
CC(C)c1nn(-c2cccc(F)c2)c2nc(C(=O)NS(C)(=O)=O)cc(-c3ccc(N4CCC(C#N)CC4)cc3)c12 | ΔF508-CFTR (Homo sapiens, UniProt P13569, DEL508-508) | 6.24

====

subject.of.test: ΔF508-CFTR (Homo sapiens, UniProt P13569, DEL508-508)
Construct: host or cells: CFBE41o-, doxycycline-inducible
protocol.details: CFTR cell surface levels using HRP-tagged ΔF508-CFTR expressing CFBE cells, intrinsic corrector capacity
Format: cell-based
Set-up: concentration or dose not given beside the values
measurement.parameters: HRP-tagged ΔF508-CFTR expressing CFBE41o- cells; compound alone (intrinsic corrector capacity); 20 hours at 33° C.
Threshold-based label: % Activation under 200% gives Met, % Activation not under 200% gives Not met.

compound | cat
CCS(=O)(=O)NC(=O)c1cc(N2CCC(CN3CCOCC3)CC2)c2c(C3CCC3)nn(-c3ccc(F)cc3)c2n1 [Compound 494] | Not met
O=C(c1cc(N2CCC(CN3CCCC3)CC2)c2c(C3CCC3)nn(-c3ccccc3)c2n1)N1CCCCS1(=O)=O [Compound 663] | Met
CCS(=O)(=O)NC(=O)c1cc(N2CCC(COC)CC2)c2c(C3CCC3)nn(-c3ccccc3)c2n1 [Compound 403] | Not met
CN(C)S(=O)(=O)NC(=O)c1cc(N2CCC(N3CCOCC3)CC2)c2c(C3CCC3)nn(-c3ccc(C(F)(F)F)cc3)c2n1 [Compound 500] | Met
CC(C)c1nn(C2CCCCC2)c2nc(C(=O)NS(C)(=O)=O)cc(-c3ccc(N4CCOC(C)(C)C4)nc3)c12 [Compound 94] | Met
CN(C)S(=O)(=O)NC(=O)c1cc(N2CCC(N3CC(C#N)C3)CC2)c2c(C3CCC3)nn(-c3ccc(F)cc3)c2n1 [Compound 523] | Not met
CC(C)c1nn(-c2ccc(F)cc2F)c2nc(C(=O)NS(C)(=O)=O)cc(-c3ccc(N4CCC(C#N)CC4)nc3)c12 [Compound 140] | Not met
CC(=O)N1CCC(F)(COc2cc(C(=O)NS(C)(=O)=O)nc3c2c(C2CCC2)nn3-c2ccccc2)CC1 [Compound 274] | Met
CCS(=O)(=O)NC(=O)c1cc(-c2ccc(N3CCOCC3)cc2)c2c(C(C)C)nn(-c3ccc(F)c(F)c3)c2n1 [Compound 223] | Not met
CS(=O)(=O)NC(=O)c1cc(C2CCN(C3CCC(F)(F)CC3)CC2)c2c(C3CCC3)nn(-c3ccc(F)cc3)c2n1 [Compound 593] | Met
CCOC(=O)N1CCN(c2cc(C(=O)NS(=O)(=O)NC)nc3c2c(C2CCC2)nn3-c2ccc(F)cc2)CC1 [Compound 680] | Not met
CCS(=O)(=O)NC(=O)c1cc(-c2ccc(N3CCOCC3)cc2)c2c(C)nn(-c3cccc(F)c3)c2n1 [Compound 68] | Not met
CS(=O)(=O)NC(=O)c1cc(OCCC2CCOCC2)c2c(C3CCC3)nn(-c3ccccc3)c2n1 [Compound 198] | Met
CC(C)Oc1nn(C2CCCCC2)c2nc(C(=O)NS(=O)(=O)N(C)C)cc(-c3ccc(CN4CCOCC4)cc3)c12 [Compound 406] | Met
CCOc1nccc(-n2nc(C3CCC3)c3c(N4CCC(N5CCOCC5)CC4)cc(C(=O)NS(=O)(=O)N(C)C)nc32)n1 [Compound 622] | Met
COC1CCN(c2cc(C(=O)NS(=O)(=O)C3CCOCC3)nc3c2c(C2CCC2)nn3-c2ccccc2)CC1 [Compound 207] | Met
CCS(=O)(=O)NC(=O)c1cc(-c2ccc(N(C)C)nc2)c2c(C(C)C)nn(C3CCCC3)c2n1 [Compound 56] | Met
COCCN(C)c1ncc(-c2cc(C(=O)NS(C)(=O)=O)nc3c2c(C(C)C)nn3C2CCCCC2)cn1 [Compound 120] | Met
COc1cccc(-n2nc(C)c3c(-c4ccc(N5CCOCC5)cc4)cc(C(=O)NS(C)(=O)=O)nc32)c1 [Compound 72] | Not met
Cc1nn(-c2ccccc2)c2nc(C(=O)NS(=O)(=O)c3ccccc3)cc(-c3ccc(N4CCOCC4)cc3)c12 [Compound 2] | Not met
COCC1CCN(c2cc(C(=O)NS(=O)(=O)C3(C)CC3)nc3c2c(C2CCC2)nn3-c2ccccc2)CC1 [Compound 374] | Not met
COC1CN(c2cccc(-n3nc(C(C)C)c4c(-c5ccc(N6CCOCC6)cc5)cc(C(=O)NS(C)(=O)=O)nc43)c2)C1 [Compound 36] | Not met
CS(=O)(=O)NC(=O)c1cc(N2CCC(CN3CCOCC3)CC2)c2c(C3CCC3)nn(-c3ccc(F)cc3)c2n1 [Compound 410] | Not met
CS(=O)(=O)NC(=O)c1cc(C2CCN(CCC(F)(F)F)CC2)c2c(C3CCC3)nn(-c3ccc(F)cc3)c2n1 [Compound 603] | Met
CC(C)c1nn(-c2ccc(F)cc2)c2nc(C(=O)NS(C)(=O)=O)cc(OCCC3CCOCC3)c12 [Compound 285] | Met
CC(C)Oc1nn(C2CCCCC2)c2nc(C(=O)NS(C)(=O)=O)cc(-c3ccc(CN4CC5CN(C)CC5C4)cc3)c12 (stereo not shown) [Compound 636] | Met
